Tested on: Streptococcus sp. 'group A'
RUN DESCRIPTION: Streptococcus pyogenes SK(-)GAS viability under kanamycin – luminescence, BacTiterGlo, confirmation, counter-screen for streptokinase expression inhibitor project, dose response (AID 1900)
Format: functional, organism-based
Active and inactive are the calls of the source. No stated cut-off is given here; in the data, actives have a measured EC50 and inactives only a lower limit.
Task for the reader: assign each of the following compounds its reported EC50.

Prompt: So what does the record say about EC50 for `COc1ccc(CN2CCc3ccc(NC(=O)c4ccncc4)cc3C2)c(F)c1` ?
Completion: > 150 µM (not active)

Prompt: So what does the record say about EC50 for CN1CCN(C2Cc3ccc(Cl)cc3Sc3ccc(F)cc32)CC1 (configuration not stated) ?
Completion: 4.95 µM (active)

Prompt: So what does the record say about EC50 for `O=C(/C=C/c1ccccc1Cl)c1ccccc(=O)c1O` ?
Completion: 1.61 µM (active)

Prompt: So what does the record say about EC50 for `CCOc1ccc(-c2nnc3ccc(SC(C)C)nn23)cc1` ?
Completion: 2.79 µM (active)

Prompt: So what does the record say about EC50 for `Sc1nnc(-c2cc(-c3ccccc3)[nH]n2)n1/N=C/c1cccc(Cl)c1` ?
Completion: 16.7 µM (active)

Prompt: So what does the record say about EC50 for O=C(O)c1ccc(N2C(=O)CC(SC(=NCc3ccc4c(c3)OCO4)Nc3ccc(F)cc3)C2=O)cc1 (configuration not stated) ?
Completion: 4.89 µM (active)

Prompt: So what does the record say about EC50 for `O=C(CN1CCCC1)Nc1ccc(NC(=O)Nc2ccccc2)cc1` ?
Completion: > 150 µM (not active)

Prompt: So what does the record say about EC50 for `O=C(CN1c2ccccc2Sc2ccccc21)NNC(=O)Nc1ccc(Cl)c(Cl)c1` ?
Completion: 2.45 µM (active)

Prompt: So what does the record say about EC50 for `Cc1nn(CC(=O)Nc2c(F)c(F)cc(F)c2F)c(=O)c2cccn12` ?
Completion: > 150 µM (not active)

Prompt: So what does the record say about EC50 for Cc1ccsc1C1C=C(c2cccc(Br)c2)Nc2ncnn21 (configuration not stated) ?
Completion: 7.49 µM (active)

Prompt: So what does the record say about EC50 for `O=[N+]([O-])c1ccc(/C=N/Nc2nc(-c3ccccc3)c3cc(Br)ccc3n2)o1` ?
Completion: 0.703 µM (active)

Prompt: So what does the record say about EC50 for `S=C(NCC1CCCCC1)Nc1ccc(Oc2ccccc2)cc1` ?
Completion: 10.9 µM (active)

Hello, the source for this data is ChEMBL document CHEMBL1201862, in case you need it.
